Tested on: human Factor 7 mRNA
ASSAY OVERVIEW: Dose-dependent antisense inhibition of human Factor 7 in HepB3 cells, lipofectin
Format: cell-based
CONDITION PARAMETERS: Table 3, 50.0 nM, approximately 16 hours
Strand notation (5' to 3'): a small letter for the sugar, then the base; units joined by * are phosphorothioate-linked, units joined directly phosphodiester-linked; [ ] holds rarer units or linkages, { } end groups; capitals alone tell only the bases. e = 2'-O-(2-methoxyethyl) (MOE); [5mC] = 5-methylcytosine; d = 2'-deoxy (DNA)
MEASURED QUANTITY: percent inhibition of Factor 7 (%)
Lab book: enter the figure in %, no units written.

Known percent inhibition of Factor 7 results, listed for orientation:
>>> value_reported("407641 (antisense e[5mC]*e[5mC]*eT*eG*eA*dG*dG*d[5mC]*d[5mC]*dA*dG*d[5mC]*dA*dG*dA*eT*e[5mC]*eA*e[5mC]*eG) [compound 407641]")
88
>>> value_reported("407900 (antisense e[5mC]*e[5mC]*e[5mC]*e[5mC]*eA*d[5mC]*dA*dA*dT*dT*d[5mC]*dG*dG*d[5mC]*d[5mC]*eT*eT*eG*eG*eG) [compound 407900]")
94
>>> value_reported("407606 (antisense e[5mC]*eT*eG*eG*eT*d[5mC]*d[5mC]*dT*dT*dG*d[5mC]*dA*dG*dG*dA*eG*e[5mC]*e[5mC]*e[5mC]*e[5mC]) [compound 407606]")
83
>>> value_reported("407643 (antisense e[5mC]*eA*e[5mC]*eA*e[5mC]*dA*dT*dG*dG*dA*dG*dT*d[5mC]*dA*dG*e[5mC]*eA*eT*e[5mC]*eG) [compound 407643]")
92
>>> value_reported("407935 (antisense eA*eT*eG*e[5mC]*eA*dT*dG*dG*dT*dG*dA*dT*dG*d[5mC]*dT*eT*e[5mC]*eT*eG*eA) [compound 407935]")
90

Query :: Hi! What's the reported percent inhibition of Factor 7 for 407910 (antisense eA*eG*eT*e[5mC]*e[5mC]*dT*dT*dG*d[5mC]*dT*dG*d[5mC]*d[5mC]*dA*dT*e[5mC]*e[5mC]*eG*eA*eG) [compound 407910] on human Factor 7 mRNA?
Result :: 82

Query :: Recall the recorded percent inhibition of Factor 7 for 407594 (antisense e[5mC]*e[5mC]*eT*eG*e[5mC]*dA*dG*d[5mC]*d[5mC]*dA*dG*dG*d[5mC]*dA*dG*e[5mC]*e[5mC]*e[5mC]*eT*eG) [compound 407594] with human Factor 7 mRNA and state it.
Result :: 84

Query :: So what percent inhibition of Factor 7 did 407936 (antisense eG*eG*e[5mC]*eA*eT*dT*d[5mC]*dG*d[5mC]*d[5mC]*dA*d[5mC]*d[5mC]*dA*dT*eG*e[5mC]*eA*eT*eG) [compound 407936] get with human Factor 7 mRNA?
Result :: 91

Query :: # returns recorded percent inhibition of Factor 7 (system: human Factor 7 mRNA) for 407939 (antisense eT*eG*e[5mC]*eA*eG*d[5mC]*d[5mC]*d[5mC]*dG*dG*d[5mC]*dA*d[5mC]*d[5mC]*d[5mC]*eA*eG*e[5mC]*eG*eA) [compound 407939]
Result :: 92
